FYI, the data here is from PubChem BioAssay.

Give measured inhibition for each item. Keep answers brief.
assayName: BT084 cell growth, single and combined drugs, ICGC_MB145, cisplatin and BGB IC40 combos (AID 1671461);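 note: cells exposed to drugs for 96 hours; 0% = vehicle DMSO and 100% = high DMSO full killing control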
recordedConditions: BT084 medulloblastoma cells, drug combinations, single agent, at 5 µM, stronger effect = higher value
The answer is to be given in %; state only the numeric part.

What does the data say about its inhibition? Entry: CCC1(O)C(=O)OCc2c1cc1n(c2=O)Cc2cc3cc(O)ccc3nc2-1 (stereo not given)
-0.722

What about this molecule? C#CCC(CCCCCC)C(=O)O (stereo not given)
14.4

What about this molecule? "NC(=S)NN=Cc1ncccc1N"
-27

What about this molecule? "COc1ccc(-c2nc(-c3cc(C(F)(F)F)cc(C(F)(F)F)c3)n(Cc3ccc(C(N)=O)cc3)c2-c2ccc(OC)cc2)cc1"
-5.53

What about this molecule? CC1CNC(=O)NC1=O (stereo not given)
-16.6

What about this molecule? CC(C)OC(=O)[C@H](C)NP(=O)(OC[C@H]1O[C@@H](n2ccc(=O)[nH]c2=O)C(C)(F)[C@@H]1O)Oc1ccccc1 (stereo not given in full)
3.91

What about this molecule? O=c1[nH]c(=O)n(C2CC(O)C(CO)O2)cc1I (stereo not given)
-7.11

What about this molecule? CC(=O)C1(O)Cc2c(O)c3c(c(O)c2C(OC2CC(N)C(O)C(C)O2)C1)C(=O)c1ccccc1C3=O (stereo not given)
81.6

What about this molecule? "CC(C)C(=O)SCCCCCCC(=O)Nc1nc(-c2ccccc2)cs1"
71.8

What about this molecule? "O=C1C(=Cc2cccnc2)C(=O)c2ccccc21"
9.68

What about this molecule? "C[C@@H]1COCCN1c1cc(C2(S(C)(=O)=O)CC2)nc(-c2cccc3[nH]ccc23)n1"
44.6

What about this molecule? "Cc1cc(C)c(Nc2ccnc(Nc3ccc(C#N)cc3)n2)c(C)c1"
2.56

What about this molecule? O=C(CCSc1nc2ccccc2c(=O)[nH]1)NC1CCC(c2nnc(-c3ccccc3)o2)CC1 (stereo not given)
-15.2

What about this molecule? CCC(C)C(=O)OC1CC(C)C=C2C=CC(C)C(CCC3CC(O)CC(=O)O3)C21 (stereo not given)
25.9

What about this molecule? NC(=O)c1cccc2cn(-c3ccc(C4CCCNC4)cc3)nc12 (stereo not given)
-30.1

What about this molecule? "Cc1ccc([N+](=O)[O-])cc1S(=O)(=O)N(C)/N=C\c1cnc2ccc(Br)cn12"
-15.9

What about this molecule? "O=C1N=c2ccccc2=C1c1c(O)[nH]c2ccccc12"
59.7

What about this molecule? Cc1cn(C2CC(O)C(COP(=O)(O)OP(=O)(O)OP(=O)(O)O)O2)c(=O)[nH]c1=O (stereo not given)
18.9

What about this molecule? "Cn1cc(-c2cnn3c(N)c(Br)c([C@H]4CCCNC4)nc23)cn1"
34.7

What about this molecule? "O=C(O)c1cc2cccc([N+](=O)[O-])c2[nH]1"
-23.7

###

assayName: RCMB18 cell growth, single agent and combined, cisplatin and BGB IC40 combos (AID 1671462);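 note: cells exposed to compound for four days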
recordedConditions: RCMB18 medulloblastoma cells, measured here: BGB IC40 combination, at 0.05 µM, stronger effect = higher value
Give measured inhibition for each item. Keep answers brief.
The answer is to be given in %; state only the numeric part.

What does the data say about its inhibition? Entry: "COc1nc(N)nc2c1ncn2[C@@H]1O[C@H](CO)[C@@H](O)[C@H]1O"
-4.14

What about this molecule? "C[C@H](NC(=O)c1ccccc1N=Cc1c(O)ccc2ccccc12)c1ccccc1"
-9.58

What about this molecule? "O=C1N=c2ccccc2=C1c1c(O)[nH]c2ccccc12"
-10.1

What about this molecule? CC(Oc1cc(-c2cnn(C3CCNCC3)c2)cnc1N)c1c(Cl)ccc(F)c1Cl (stereo not given)
5.63

What about this molecule? "C[n+]1ccc(-c2c3nc(c(-c4cc[n+](C)cc4)c4ccc([nH]4)c(-c4cc[n+](C)cc4)c4nc(c(-c5cc[n+](C)cc5)c5ccc2[nH]5)C=C4)C=C3)cc1"
-15.7

What about this molecule? "Cc1cc(C=CC#N)cc(C)c1Nc1ccnc(Nc2ccc(C#N)cc2)n1"
-40.8

What about this molecule? CC1CNC(=O)NC1=O (stereo not given)
-20.6

What about this molecule? "Nc1ccccc1NC(=O)c1cnccn1"
-24.6

What about this molecule? "O=c1[nH]c(=S)[nH]c2nc(-c3ccccc3)c(-c3ccccc3)nc12"
-12.2

What about this molecule? CCC(Sc1nnc2c3ccccc3n(CC)c2n1)C(=O)Nc1ccccc1OC (stereo not given)
-28

###

assayName: drug combination growth inhibition, ovarian cancer – cell-based, oncology-focused library, rucaparib conditional, profiling panel (AID 1508598)
recordedConditions: patient-derived ovarian cancer cells, CellTiter-Glo viability, 144 h; at 0.0195 µM; OCI-P5x cells; without rucaparib; stronger effect = lower value
reportedProperty: viability (%)
The answer is to be given in %; state only the numeric part.

What does the data say about its viability? Entry: "COc1cccc2c1C(=O)c1c(O)c3c(c(O)c1C2=O)C[C@@](O)(C(=O)CO)C[C@H]3O[C@H]1C[C@H](N)[C@H](O)[C@H](C)O1"
106

What about this compound? "CC#C[C@@]1(O)CC[C@H]2[C@@H]3CCC4=CC(=O)CCC4=C3[C@H](c3ccc(N(C)C)cc3)C[C@@]21C"
87.4

What about this compound? "OCCn1cc(-c2ccc3c(c2)CCC3=NO)c(-c2ccncc2)n1"
101

What about this compound? "CN(CC(=O)N(Cc1ccc(C2CCCCC2)cc1)c1ccc(C(=O)O)cc1)S(=O)(=O)c1c(F)c(F)c(F)c(F)c1F"
95.6

###

assayName: viability loss with induced miR-34 in A549 – imaging, A549 dox-inducible miR-34, nuclei and caspase counts, primary screen (AID 1347080)
recordedConditions: A549 miR-34 inducible, Hoechst nuclei count, 48 h; measured here: relative caspase fold change +Dox/-Dox
reportedProperty: fold change

What does the data say about its fold change? Entry: "CN1CCc2cc(NC(=O)Nc3cccnc3)ccc21"
2.86

What about this compound? "NC(N)=NC(N)=Nc1cc(C(F)(F)F)ccc1Cl"
0.694

What about this compound? "O=C(O)C=Cc1ccccc1O"
0.83

What about this compound? CC(C)CC(NC(=O)CNC(=O)c1cc(Cl)ccc1Cl)B(O)O (centres undefined)
1.44

What about this compound? CCCCC[C@H](O)/C=C/[C@@H]1[C@@H](C/C=C\CCCC(=O)O)[C@@H](O)C[C@H]1O (tested in a mixture with another compound)
1.17

What about this compound? "CN1CCc2ccccc2Cc2[nH]c3ccccc3c2CC1"
0.882

What about this compound? "CNc1ccnc(-c2cnn(CC(=O)Nc3cc(C)nn3C)c2)n1"
1.09

What about this compound? NC[C@H]1O[C@H](OC2[C@@H](N)C[C@@H](N)[C@H](O)[C@H]2O[C@@H]2O[C@H](CO)[C@@H](O)[C@H]2O)[C@H](N)[C@@H](O)[C@@H]1O (some centres undefined)
0.629

What about this compound? COc1ccc2cc1Oc1ccc(cc1)CC1c3cc(c(OC)cc3CCN1C)Oc1c(OC)c(OC)cc3c1C(C2)N(C)CC3 (centres undefined)
0.992

###

assayName: growth inhibition, MDA-MB-436, cell-based, BGB or cisplatin combos, synergistic combos for chromothripsis tumors (AID 1671458);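 note: cells exposed for 96 hours; 0% = vehicle DMSO and 100% = killing by high DMSO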
recordedConditions: MDA-MB-436 breast carcinoma growth inhibition, drug combinations; at 0.5 µM; stronger effect = higher value
Give measured inhibition for each item. Keep answers brief.
The answer is to be given in %; state only the numeric part.

What does the data say about its inhibition? Entry: "O=C(CCCCCCC(=O)NO)NO"
-5.23

What about this compound? "Cc1ccc(NC(=O)CCCCCC(=O)Nc2ccccc2N)cc1"
-27.5

What about this compound? "Cc1cc(C=CC#N)cc(C)c1Nc1ccnc(Nc2ccc(C#N)cc2)n1"
-19.9

What about this compound? "Cc1cc(C)cc(C(=O)NOCCCCCC(=O)NO)c1"
7.8

What about this compound? C=C(C)C1CCC2(C(=O)O)CCC3(C)C(CCC4C5(C)CCC(O)C(C)(C)C5CCC43C)C12 (stereo not given)
-18.9

What about this compound? "C[C@H](NC(=O)c1ccccc1N=Cc1c(O)ccc2ccccc12)c1ccccc1"
-1.91

What about this compound? C=CC1=C(C)C2=CC3=NC(=C(CC(=O)O)C4=NC(=C(C)C4=C(O)O)C=c4[nH]c(c(C)c4CC)=CC1=N2)C(CCC(=O)O)C3C (stereo not given)
-19

What about this compound? CC(Oc1cc(-c2cnn(C3CCNCC3)c2)cnc1N)c1c(Cl)ccc(F)c1Cl (stereo not given)
2.15

What about this compound? CON=C1CN(c2nc3c(cc2F)c(=O)c(C(=O)O)cn3C2CC2)CC1CN (stereo not given)
-11.3

What about this compound? CC(=O)C1(O)Cc2c(O)c3c(c(O)c2C(OC2CC(N)C(O)C(C)O2)C1)C(=O)c1ccccc1C3=O (stereo not given)
76.4
